- ASSAY_SYSTEM: Dual specificity protein phosphatase 6 (Rattus norvegicus) (UniProt Q64346)
- Sequence (Q64346 whole entry, looked up): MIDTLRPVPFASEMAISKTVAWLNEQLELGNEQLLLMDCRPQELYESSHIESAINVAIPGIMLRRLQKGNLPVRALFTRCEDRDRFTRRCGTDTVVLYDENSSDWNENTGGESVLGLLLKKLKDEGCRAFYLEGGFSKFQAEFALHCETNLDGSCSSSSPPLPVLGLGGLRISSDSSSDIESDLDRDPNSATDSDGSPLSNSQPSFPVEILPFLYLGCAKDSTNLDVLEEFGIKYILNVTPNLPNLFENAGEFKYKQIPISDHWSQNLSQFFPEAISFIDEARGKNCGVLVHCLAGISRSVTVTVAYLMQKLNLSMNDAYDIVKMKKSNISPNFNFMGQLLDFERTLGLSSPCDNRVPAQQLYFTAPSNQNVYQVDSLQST
- TEST: DUSP6 phosphatase inhibition, redox-sensitive – biochemical, rat enzyme, secondary assay (AID 1054)
- COND: recombinant MKP-3 phosphatase activity, redox-state secondary assay
Active and inactive are the calls of the source. No rule for the calls is given here.
Log the outcome using a class from Yes (active), No (inactive)

Enquiry: Write down the call the test reported for this compound. Item: Cc1cc2ccccn2c1C(=O)C(=O)O
Return: No

Enquiry: Further, for CCCCCCCCCCCCCCCCCCC#CCCCCCCCC(=O)O ?
Return: No

Enquiry: Further, for O=C(O)C1Nc2cc(C(F)(F)F)ccc2S(=O)(=O)N1 (configuration not stated) ?
Return: No

Enquiry: Further, for Cc1ccc2c(c1)C1C=CCC1C(C(=O)O)N2 (configuration not stated) ?
Return: Yes

Shifting focus to the compound that follows.
Enquiry: Write down the call the test reported for this compound. Item: O=C(O)c1ccc(-c2ccc(/C=c3\sc4nc5ccccc5n4c3=O)o2)cc1
Return: Yes

---

- ASSAY_SYSTEM: Dual specificity protein phosphatase 6 (Rattus norvegicus)
- TEST: DUSP6 phosphatase inhibition, redox-sensitive – biochemical, rat enzyme, secondary assay (AID 1054)
- COND: recombinant MKP-3 phosphatase activity, redox-state secondary assay
Activity calls are given as the source filed them. How the calls were made is not given here.
Log the outcome using a class from Yes for active, No for inactive

Completed entries (count: 4):
Enquiry: Write down the call the test reported for this compound. Item: Cc1cc([N+](=O)[O-])cc2c1NC(C(=O)O)C1CC=CC21 (configuration not stated)
Return: No

Enquiry: Further, for CCC(CC)c1nnc(NC(=O)Cc2cccs2)s1 ?
Return: No

Enquiry: Further, for CCCCCc1nnc(NC(=O)Cc2cccs2)s1 ?
Return: Yes

Enquiry: Further, for CC(=O)Nc1ccc2c(c1)C1C=CCC1C(C(=O)O)N2 (configuration not stated) ?
Return: No

Next:
Enquiry: Write down the call the test reported for this compound. Item: Cn1c(SCC(=O)O)nc2sc3c(c2c1=O)CCC3
Return: No

Enquiry: Further, for O=c1/c(=C/c2ccc(-c3ccccc3[N+](=O)[O-])o2)sc2nc3cc(Br)cnc3n12 ?
Return: Yes

Enquiry: Further, for CCCn1c(=O)nc(NCc2ccc(C)cc2)[nH]c1=O ?
Return: No
